Please go through the items and note down their growth inhibition.
- Protocol: NCI Yeast Anticancer Drug Screen. Data for the rad50 strain (AID 155);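 also: 0% = growth of vehicle-only cultures of the same strain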
- Test Settings: S. cerevisiae rad50 strain growth inhibition; at 50.0 µM; active compounds read high
Compounds without any hit were thinned out: in the full panel of roughly 79,000, 15% have a hit.
Report only the number, with the unit % understood.

Ask | Recorded growth inhibition for CC(C)/C=N/N=C/C(C)C , please?
Reply | -15.8

Ask | Recorded growth inhibition for Cn1c(=O)c2[nH]c(C3CCCCCC3)nc2n(C)c1=O , please?
Reply | 13.6

Ask | Recorded growth inhibition for Cc1cccc(C2=N/C(=C\c3ccccc3)C(=O)O2)c1 , please?
Reply | 7.15

Ask | Recorded growth inhibition for O=C1COC(=O)/C1=C/c1ccccc1 , please?
Reply | -0.4

Ask | Recorded growth inhibition for c1cc2cc(c1)CNCCNCCNCc1cccc(c1)CNCCNCCNC2 , please?
Reply | -22.4

Ask | Recorded growth inhibition for CC(C)NC(=O)OCc1c(COC(=O)NC(C)C)c2cccn2c2c1cnn2-c1ccccc1 , please?
Reply | -0.9

Ask | Recorded growth inhibition for CCOC(=O)c1ccc(NCc2nc3ccccc3nc2C)cc1 , please?
Reply | -17.8

Ask | Recorded growth inhibition for O=C(O)CCCc1ccc(O)cc1 , please?
Reply | 7.1

Ask | Recorded growth inhibition for C[C@]12CCC(=O)C=C1CC[C@@H]1[C@@H]2C(=O)C[C@@]2(C)[C@H]1CC[C@]2(O)C(=O)C=O , please?
Reply | -5

Ask | Recorded growth inhibition for O=C(O)C1CCc2ccccc2C1 (configuration not stated) , please?
Reply | 15.4

Ask | Recorded growth inhibition for COc1cccc(/C=C\C#N)c1 , please?
Reply | -23.1

Ask | Recorded growth inhibition for CNc1ncnc2c1c(C(N)=S)cn2C1OC(CO)C(O)C1O (configuration not stated) , please?
Reply | 0.1

====

- Protocol: NCI Yeast Anticancer Drug Screen. Data for the cln2 rad14 strain (AID 165);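 also: 0% = growth equal to vehicle treated cultures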
- Test Settings: S. cerevisiae cln2 rad14 strain, at 50.0 µM, active compounds read high
The panel holds about 79,000 compounds, 15% with a hit somewhere; the sample as a whole holds those more often.
Please go through the items and note down their growth inhibition.
Report only the number, with the unit % understood.

Ask | Recorded growth inhibition for COC(=O)Nc1c2c(nc3ccccc13)-c1ccccc1C(C)(C)C2OC (configuration not stated) , please?
Reply | -7.7

Ask | Recorded growth inhibition for CN(C)c1nc2ccccc2[nH]1 , please?
Reply | -1.35

Ask | Recorded growth inhibition for CCOC(=O)CCCC(NC(=O)c1ccc(N2CCN(c3c(N)nc(N)nc3NC)CC2)cc1)C(=O)OCC (configuration not stated) , please?
Reply | 6.55

Ask | Recorded growth inhibition for C#CCOC(=O)c1ccccc1O , please?
Reply | 13.4

Ask | Recorded growth inhibition for CC(=O)c1ccc(C(=O)O)cc1 , please?
Reply | -0.15

Ask | Recorded growth inhibition for Cc1ccc2cc(CCCC(=O)O)ccc2c1 , please?
Reply | 31.6

Ask | Recorded growth inhibition for CCCC(=O)N[C@H]1C[C@H]2CC[C@@]1(C)C2(C)C , please?
Reply | 11.2

Ask | Recorded growth inhibition for O=c1oc2ccccc2c(O)c1Cc1cccc(Cc2c(O)c3ccccc3oc2=O)c1 , please?
Reply | 9.3

Ask | Recorded growth inhibition for O=C(O)/C=C/C(=O)Nc1ccc(C(=O)O)cc1 , please?
Reply | 7.6

Ask | Recorded growth inhibition for Cc1cccc(C)c1NC(=S)N(CCC#N)Cc1ccccc1 , please?
Reply | -4.55

Ask | Recorded growth inhibition for O=c1[nH]cc([N+](=O)[O-])c(=O)[nH]1 , please?
Reply | 14.7

Ask | Recorded growth inhibition for CC(C)(C)NC(NC(C)(C)C)=C(/C=C(/Cl)[N+](=O)[O-])[N+](=O)[O-] , please?
Reply | -10.9

====

- Protocol: NCI Yeast Anticancer Drug Screen. Data for the cln2 rad14 strain (AID 165);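 also: 0% = growth equal to vehicle treated cultures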
- Test Settings: S. cerevisiae cln2 rad14 strain, at 50.0 µM, active compounds read high
Compounds without any hit were thinned out: in the full panel of roughly 79,000, 15% have a hit. Where a SMILES comes first, the peptide text is derived from it. [ ]: non-standard residue; d: D form. Hiv = CC(C)[C@H](O)C(=O)O
Please go through the items and note down their growth inhibition.
Report only the number, with the unit % understood.

Ask | Recorded growth inhibition for C=CCNC(=O)/C=C/C , please?
Reply | 1.8

Ask | Recorded growth inhibition for O=C(Nc1ccccc1)C1(Cl)CCCCC1 , please?
Reply | -16.9

Ask | Recorded growth inhibition for CCCCCCCCCCCCOP(=O)(O)OP(=O)(O)OCC1OC(n2cc(C)c(=O)[nH]c2=O)CC1O (stereo not drawn) , please?
Reply | 14.7

Ask | Recorded growth inhibition for C/C(=N\N)c1ccc(-c2ccccc2)cc1 , please?
Reply | -32.8

Ask | Recorded growth inhibition for C/C(CC(=O)Nc1ccc(Cc2ccc(Cl)cc2)cc1)=N/Nc1ccc([N+](=O)[O-])cc1[N+](=O)[O-] , please?
Reply | -1.15

Ask | Recorded growth inhibition for CC(C)C1CSC2N1C(=O)C2(OCc1ccccc1)C1CC1 (stereo not drawn) , please?
Reply | -16.2

Ask | Recorded growth inhibition for Cc1c2c([nH]c(=O)c1C)C=CC(Br)C2Br (stereo not drawn) , please?
Reply | 3.2

Ask | Recorded growth inhibition for CCCCC(CC)COC(=O)CSC#N (stereo not drawn) , please?
Reply | -15.6

Ask | Recorded growth inhibition for O=C1C2C3C=C4c5ccccc5N(c5ccccc5)C4([C@@H]2C(=O)N1c1ccc(F)cc1)[C@H]1C(=O)N(c2ccc(F)cc2)C(=O)[C@@H]31 (stereo partly drawn) , please?
Reply | 40.1

Ask | Recorded growth inhibition for O=C(SCCN1CCCC1)C(O)(c1ccccc1)C1CCCC1 (stereo not drawn) , please?
Reply | -7.95

Ask | Recorded growth inhibition for Cc1cccc(NC(=O)OCCOC(=O)Nc2cccc(C)n2)n1 , please?
Reply | -9.25

Ask | Recorded growth inhibition for Nc1ccc2ccccc2c1Cl , please?
Reply | 6

Ask | Recorded growth inhibition for O=C(O)C(Oc1ccccc1)Oc1ccccc1 , please?
Reply | 5.85

Ask | Recorded growth inhibition for CC[C@H]1CN(C)[C@H]2Cc3c([nH]c4ccccc34)C(=O)C[C@H]1C2C(=O)OC (stereo partly drawn) , please?
Reply | 12.6

Ask | Recorded growth inhibition for CC1c2c(cc(=O)n(C)c2O)C(=O)N1C (stereo not drawn) , please?
Reply | -6.2

Ask | Recorded growth inhibition for O/N=C1\CC2(N3CCOCC3)CCC1(Cc1ccccc1)CC2 , please?
Reply | 55.6

Ask | Recorded growth inhibition for O=C1NCCN1CCCl , please?
Reply | 1.5

Ask | Recorded growth inhibition for CCOC(=O)/C(Cc1ccccc1[N+](=O)[O-])=N/O , please?
Reply | -13.4

Ask | Recorded growth inhibition for CC(C)[C@@H]1OC(=O)[C@@H](C)NC(=O)[C@@H]2CCCN2C1=O (cyclo([Hiv]-Pro-[dA])) , please?
Reply | 5.95

Ask | Recorded growth inhibition for Cc1cc2c(=O)cc(-c3ccc(C(F)(F)F)cc3)oc2c(C(=O)O)c1C , please?
Reply | 13.1

Ask | Recorded growth inhibition for O=C1CCC(N2C(=O)C3C4CCC(O4)C3C2=O)C(=O)O1 (stereo not drawn) , please?
Reply | 13.8

Ask | Recorded growth inhibition for O=C1C2=C(c3ccccc31)C(c1ccccc1Cl)N1C(=O)CSC1=N2 (stereo not drawn) , please?
Reply | 48.6

Ask | Recorded growth inhibition for COC(=O)NC1(NC(=O)OC)NC(=O)c2cc(OC)c(OC)cc2N1 , please?
Reply | -16.5

====

- Protocol: NCI Yeast Anticancer Drug Screen. Data for the sgs1 mgt1 strain (AID 161);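 also: 0% = growth of cultures given vehicle only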
- Test Settings: S. cerevisiae sgs1 mgt1 strain, at 50.0 µM, active compounds read high
This is part of a sample that, as a whole, favours compounds with a hit. Of some 79,000 tested, about 15% had one in any assay.
Readout Name: growth inhibition (%)
Report only the number, with the unit % understood.

Ask | Recorded growth inhibition for CN(Nc1c([N+](=O)[O-])cc([N+](=O)[O-])cc1[N+](=O)[O-])c1ccc2ccccc2c1 , please?
Reply | 21.4

Ask | Recorded growth inhibition for C/C(=N\N(C)S(=O)(=O)c1ccc(C)cc1)c1ccccc1 , please?
Reply | -5.5

Ask | Recorded growth inhibition for CCOC(=O)c1ccc(NC(=O)/C=C/c2ccccc2)cc1 , please?
Reply | 17.4

Ask | Recorded growth inhibition for COc1cc(/C=C/C=C(C(=O)O)C(=O)O)cc(OC)c1OC , please?
Reply | -14.7

Ask | Recorded growth inhibition for C=C1C(=O)O[C@H]2C[C@@H]1C(=O)C/C(C)=C/CC/C(C)=C/CC[C@@]2(C)OCSC , please?
Reply | 39

Ask | Recorded growth inhibition for O=[N+]([O-])c1ccc(N/N=C\C2C=CCCC2)c([N+](=O)[O-])c1 (stereo unspecified) , please?
Reply | -5.65

Ask | Recorded growth inhibition for O=C1CCN2C(=O)CCN12 , please?
Reply | 18.7

Ask | Recorded growth inhibition for CC1c2c(Cl)nc3ccccc3c2Oc2c1c(Cl)nc1ccccc21 , please?
Reply | -6.05

Ask | Recorded growth inhibition for CCCC1CCCC12CCc1ccccc1C2=O (stereo unspecified) , please?
Reply | -11.1

Ask | Recorded growth inhibition for CC(=O)Nc1ccc(C2CC(c3ccc([N+](=O)[O-])cc3)=Nc3ccccc3S2)cc1 (stereo unspecified) , please?
Reply | 34.1

Ask | Recorded growth inhibition for Clc1ccccc1C(Nc1ncccn1)Nc1ncccn1 , please?
Reply | -8.05
